# test-system: T1, human IL4Rα expressed on 293F-IL4Rα cells (human, UniProt P24394 26-825)
# T1 construct: whole, on cells; also called cell surface human IL4Rα
# assay-text: flow cytometry on 293F-IL4Rα cells
The binders listed here are annotated with their EC50.
A number alone suffices; assume nM.

Below, 2 binders whose answers are already recorded.
binder	EC50, nM
chimeric antibody C2C1A1A1 (antibody, human IgG4 S228P, kappa, V domains shown, Mouse variable domains on human IgG4/kappa; also called Chimeric C2C1A1A1; chC2C1A1A1) VH: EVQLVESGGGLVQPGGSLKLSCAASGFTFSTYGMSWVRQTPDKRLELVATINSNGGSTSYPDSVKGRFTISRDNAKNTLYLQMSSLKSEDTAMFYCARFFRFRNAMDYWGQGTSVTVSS VL: DIQMTQSPASLSASVGETVTITCRTSENIYSYLAWYQQKQGKSPQFLVYNAKTLAEGVPSRFSGSGSGTQFSLNINSLQSEDFGSYYCQHYYGPPTWTFGGGTKLEIKR	0.63
chimeric antibody B8G11F2B7G5E8 (antibody, human IgG4 S228P, kappa, V domains shown, Mouse variable domains on human IgG4/kappa; also called Chimeric B8G11F2B7G5E8; chB8G11F2B7G5E8) VH: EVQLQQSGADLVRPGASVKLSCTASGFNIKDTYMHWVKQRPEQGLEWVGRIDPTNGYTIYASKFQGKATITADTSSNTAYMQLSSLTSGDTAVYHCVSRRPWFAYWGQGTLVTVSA VL: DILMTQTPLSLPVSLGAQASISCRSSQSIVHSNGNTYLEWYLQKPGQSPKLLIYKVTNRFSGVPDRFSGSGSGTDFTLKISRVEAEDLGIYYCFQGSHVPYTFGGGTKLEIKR	0.775

Now look at this one.
Item mouse antibody C2C1A1A1 (antibody, V domains shown, Mouse hybridoma mAb; also called Mouse C2C1A1A1) VH: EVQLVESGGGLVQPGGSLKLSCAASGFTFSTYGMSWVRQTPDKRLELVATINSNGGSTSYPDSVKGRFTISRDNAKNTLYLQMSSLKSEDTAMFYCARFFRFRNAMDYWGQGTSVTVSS VL: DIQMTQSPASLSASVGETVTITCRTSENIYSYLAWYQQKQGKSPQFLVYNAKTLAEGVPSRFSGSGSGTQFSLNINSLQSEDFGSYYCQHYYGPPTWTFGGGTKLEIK : provide EC50 0.307
